Provenance of the data: patent US4758597A

The reader will find reported selectivity ratio at 0.25 h values listed item by item below.
testMethodNotes: Audiogenic seizure (AGS) test, anticonvulsant activity
Assay type: in vivo, rat
measurementSetup: rat, in vivo; ratio of ROT TD50 to AGS ED50, iv, rats; read-out: PI (protective index = ROT-TD50/AGS-ED50)
Quick one: just the number, no unit, thanks!

Below are worked cases with known answers.
- NC(=O)N1c2ccccc2C=Cc2ccccc21 [Carbamazepine]: 2.7
- CCC1(c2ccccc2)C(=O)NC(=O)NC1=O: 2.7
- CCCCCc1cc(O)c(C2C=C(C)CC3C2C3(C)C)c(O)c1 (single isomer, unassigned; (+)) [(+)-5a]: 5.5
- O=C1NC(=O)C(c2ccccc2)(c2ccccc2)N1: 1.6

Let us move to another entry and its selectivity ratio at 0.25 h.
Query :: Return reported selectivity ratio at 0.25 h; argument: CCCCCCC(C)(C)c1cc(O)c(C2C=C(C)CC3C2C3(C)C)c(O)c1 (single isomer, unassigned; (+)) [(+)-5b]
Result :: 1.1

----------
The reader will find reported TD50 at 0.25 h values listed item by item below.
testMethodNotes: Rat rotorod (ROT) test, differential neurotoxicity
Type: in vivo
measurementSetup: iv, rats, tested 15 minutes after injection, 95% confidence limits printed in parentheses on the next line, read-out: ROT TD50 (median neurotoxic dose)

Below are worked cases with known answers.
• CCC1(c2ccccc2)C(=O)NC(=O)NC1=O = 28.9 mg/kg
• O=C1NC(=O)C(c2ccccc2)(c2ccccc2)N1 = 23.9 mg/kg
• NC(=O)N1c2ccccc2C=Cc2ccccc21 [Carbamazepine] = 33.9 mg/kg

Query :: Return reported TD50 at 0.25 h; argument: CCCCCCC(C)(C)c1cc(O)c(C2C=C(C)CC3C2C3(C)C)c(O)c1 (single isomer, unassigned; (+)) [(+)-5b]
Result :: 3.7 mg/kg

Query :: Return reported TD50 at 0.25 h; argument: CCCCCc1cc(O)c(C2C=C(C)CC3C2C3(C)C)c(O)c1 (single isomer, unassigned; (+)) [(+)-5a]
Result :: 99.8 mg/kg
